Item-by-item account of EC50
- subject of test: T1, human Claudin18.2 (human)
- T1 construct: also called CLDN18.2
- experimental details: cell ELISA, Claudin18.2-expressing HEK293T cells
Write the number in nM without appending the unit.

200A4H8 (antibody, V domains shown, mouse hybridoma mAb) VH: QVQLKQSGPGLVQPSQSLSITCTVSGFSLTRYGVHWVRQSPGKGLEWLGVIWSGGNTDYNAAFISRLNIRKDNSKSQVFFKMNSLKPNDTAIYYCARAAYFGNSFDYWGQGTTLTVSS VL: DIVMTQSPSSLPVTAGEKVTMSCKSSQSLLNSGNQKNYLTWYQQKPGQPPKLLIYWASTRDSGVPDRFTGSGSGTDFTLTISSVQAEDLAVYYCQNNYIYPLTFGAGTKLELK
1.01

Q. Please give the measured EC50 for this binder: 370E2B12C3 (antibody, V domains shown, mouse hybridoma mAb) VH: QVQLKESGPGLVAPSQSLSITCTVSGFSLTTYGVHWVRQPPGKGLEWLGVIWAGGSTNYNSALMSRVSINKDNSKSQVFIKMNSLQADDTALYYCARAAYYGNGLDYWGQGTTLTVSS VL: DIVMTQSPSSLTVTAGEKVTMSCKSSQTLLNSGNQKNYLTWYQQKPGQPPKLLIYWASTGESGVPDRFTGSGSGTDFTLTISSVQAEDLAVYFCQNAYFYPFTFGGGTKLEIK
A. 0.522

Q. Look at this binder and give its reported EC50. 182D10F1 (antibody, V domains shown, mouse hybridoma mAb) VH: QAYLQQSGAELVRSGASVKMSCKASGYTFSSYNMHWVKQTPGQGLEWIGYIYPGNGGTNYNQKFKGKATLTADTSSSTAYMQISSLTSEDSAVYFCLTGRGFTYWGQGTLVTVSA VL: DIVMTQSPSSLTVTAGEKVTMNCKSSQSLFNSGNQKNYLTWYQQKPGQPPKLLIYRASTRESGVPDRFTGSGSGTDFTLTISSVQAEDLAVYYCQNDYSYPLTFGVGTKLELK
A. 1.65
